# Tested on: Acinetobacter baumannii
# ASSAY TEXT: Membrane disrupting activity in Acinetobacter baumannii ATCC 17978 assessed as antibacterial activity by measuring inhibition of bacterial growth by CLSI-based antimicrobial dilution susceptibility method
RESULT TYPE: MIC

>>> df
                                        smi  test_result
0  NCCOc1c(Cl)cc(Cl)cc1Sc1cc(Cl)cc(Cl)c1OCCN     64 µg/mL
1  O=C(O)c1ccc2cc(-c3ccc(O)c(C45CC6CC(CC(C6)C4)C5)c3)ccc2c1   > 64 µg/mL
2  NCCOc1ccc(-c2ccc3cc(C(=O)O)ccc3c2)cc1C12CC3CC(CC(C3)C1)C2   > 64 µg/mL
3       Oc1c(Cl)cc(Cl)cc1Sc1cc(Cl)cc(Cl)c1O     16 µg/mL
4  NCCOc1cc(C(=O)O)cc2ccc(-c3ccc(O)c(C45CC6CC(CC(C6)C4)C5)c3)cc12   > 64 µg/mL
5  NCCOc1cc(CO)cc2ccc(-c3ccc(O)c(C45CC6CC(CC(C6)C4)C5)c3)cc12   > 64 µg/mL
6  NCCOc1ccc(-c2ccc3cc(CO)ccc3c2)cc1C12CC3CC(CC(C3)C1)C2   > 64 µg/mL
